Target: CYCLIN K (nuclear staining in CAL-120 cells) (Homo sapiens, UniProt O75909)
Construct: endogenous in cells; host or cells: CAL-120 human breast cancer cells (DSMZ ACC 459)
Sequence (O75909 whole entry): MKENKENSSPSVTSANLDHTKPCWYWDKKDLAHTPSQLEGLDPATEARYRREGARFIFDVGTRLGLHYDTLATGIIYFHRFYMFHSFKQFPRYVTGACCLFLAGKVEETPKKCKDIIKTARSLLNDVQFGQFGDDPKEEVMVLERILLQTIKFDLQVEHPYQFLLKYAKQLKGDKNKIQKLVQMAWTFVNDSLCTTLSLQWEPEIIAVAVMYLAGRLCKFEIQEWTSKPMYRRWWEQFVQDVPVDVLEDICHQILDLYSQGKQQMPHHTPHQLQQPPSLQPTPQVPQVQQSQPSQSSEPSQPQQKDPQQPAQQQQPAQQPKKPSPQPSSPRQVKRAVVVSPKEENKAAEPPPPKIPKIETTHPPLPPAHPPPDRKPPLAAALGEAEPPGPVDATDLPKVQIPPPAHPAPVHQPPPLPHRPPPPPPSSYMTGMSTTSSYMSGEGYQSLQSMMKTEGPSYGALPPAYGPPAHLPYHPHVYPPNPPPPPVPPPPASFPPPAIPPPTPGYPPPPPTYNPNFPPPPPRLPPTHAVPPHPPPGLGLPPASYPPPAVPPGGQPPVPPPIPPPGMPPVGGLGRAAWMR
Sequence (Q9NYV4 whole entry partner): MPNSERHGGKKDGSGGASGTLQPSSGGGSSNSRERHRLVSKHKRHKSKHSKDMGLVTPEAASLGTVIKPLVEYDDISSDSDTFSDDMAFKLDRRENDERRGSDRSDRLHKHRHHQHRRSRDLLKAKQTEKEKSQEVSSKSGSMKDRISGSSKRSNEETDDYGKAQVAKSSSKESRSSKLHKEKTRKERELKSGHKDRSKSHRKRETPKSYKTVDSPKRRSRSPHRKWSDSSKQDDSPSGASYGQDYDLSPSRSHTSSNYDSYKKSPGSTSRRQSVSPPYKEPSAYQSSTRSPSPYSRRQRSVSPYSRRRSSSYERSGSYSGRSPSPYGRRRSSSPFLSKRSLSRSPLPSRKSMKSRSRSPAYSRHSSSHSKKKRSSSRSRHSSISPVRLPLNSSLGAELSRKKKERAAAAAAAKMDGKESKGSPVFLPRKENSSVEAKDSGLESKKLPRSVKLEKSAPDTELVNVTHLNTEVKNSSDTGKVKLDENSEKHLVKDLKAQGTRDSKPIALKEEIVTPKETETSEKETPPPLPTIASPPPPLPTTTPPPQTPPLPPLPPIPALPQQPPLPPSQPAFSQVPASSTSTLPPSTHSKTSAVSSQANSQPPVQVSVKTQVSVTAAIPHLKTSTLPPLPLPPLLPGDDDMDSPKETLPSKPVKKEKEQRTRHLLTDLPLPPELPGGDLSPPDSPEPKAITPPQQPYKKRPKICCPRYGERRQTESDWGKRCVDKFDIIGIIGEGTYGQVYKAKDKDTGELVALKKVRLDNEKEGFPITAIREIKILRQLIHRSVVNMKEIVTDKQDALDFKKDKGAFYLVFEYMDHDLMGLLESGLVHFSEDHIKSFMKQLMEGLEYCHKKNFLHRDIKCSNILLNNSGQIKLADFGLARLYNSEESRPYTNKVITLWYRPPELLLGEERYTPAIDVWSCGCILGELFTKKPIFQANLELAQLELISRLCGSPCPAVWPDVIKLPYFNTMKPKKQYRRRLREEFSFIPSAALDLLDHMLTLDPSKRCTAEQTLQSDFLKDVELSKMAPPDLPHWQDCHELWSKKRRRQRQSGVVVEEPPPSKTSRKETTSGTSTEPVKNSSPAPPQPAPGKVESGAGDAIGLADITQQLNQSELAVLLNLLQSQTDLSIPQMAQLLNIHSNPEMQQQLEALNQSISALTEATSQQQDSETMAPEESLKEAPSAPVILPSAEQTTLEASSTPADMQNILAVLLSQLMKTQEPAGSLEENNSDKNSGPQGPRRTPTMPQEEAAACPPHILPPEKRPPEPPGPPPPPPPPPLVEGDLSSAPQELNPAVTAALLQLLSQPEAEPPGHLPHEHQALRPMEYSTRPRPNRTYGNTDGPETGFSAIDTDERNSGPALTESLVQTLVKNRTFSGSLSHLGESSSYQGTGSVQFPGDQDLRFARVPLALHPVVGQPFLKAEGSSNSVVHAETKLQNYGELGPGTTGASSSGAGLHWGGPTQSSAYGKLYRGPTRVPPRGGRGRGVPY
Test: CYCLIN K nuclear protein level: immunofluorescence high content analysis (CAL-120)
Assay type: cell-based
Details: 24 h, 50% reduction of nuclear CCNK staining intensity, median, read-out: CYCLIN K degradation IF, DC50-[mol/l] (median)
Method: 8. CYCLIN K nuclear protein level: immunofluorescence High Content Analysis CAL-120 human breast cancer cells (DSMZ ACC 459) are seeded in 1536-well microtiter plates (800 cells per well) containing 50 nanoL of compounds in Dose-Response. Control wells received DMSO or Example 4. […] Nuclear and cytoplasmic intensity as well as the nuclear/cytoplasmic intensity ratio is determined by automated image analysis using custom generated scripts (MetaXpress). […]
measure: DC50 (nM)

>>> number("O[C@H]1C[C@@H](Nc2nc(NCc3nc4ccccc4[nH]3)n3ncc(Br)c3n2)C1 [Example 234]")
1.74
>>> number("CN1CCN(c2nc(NCc3nc4cc(F)c(Cl)cc4[nH]3)n3ncc(C4CC4)c3n2)CC1 [Example 309]")
0.914
>>> number("CN1CCN(c2nc(NCc3nc4c(F)c(F)ccc4[nH]3)n3ncc(Br)c3n2)CC1 [Example 133]")
0.0633
>>> number("CO[C@H]1CCN(c2nc(NCc3nc4ccccc4[nH]3)n3ncc(Br)c3n2)C1 [Example 222]")
3.05
>>> number("CN(CC(C)(C)O)c1nc(NCc2nc3c(F)c(F)ccc3[nH]2)n2ncc(C3CC3)c2n1 [Example 292]")
0.643
>>> number("Brc1cnn2c(NCc3nc4ccccc4[nH]3)nc(N3CCC4(CCN4)CC3)nc12 [Example 291]")
10
>>> number("Fc1ccc2[nH]c(CNc3nc(N4C[C@@H]5CCCN[C@@H]5C4)nc4c(C5CC5)cnn34)nc2c1F [Example 171]")
0.981
